# assay.summary: Dose linearity study: single IV dose PK, noncompartmental analysis
# Assay type: in vivo, female BALB/c mice
# condition.info: female, BALB/c, mouse, plasma, iv, 60 mg/kg
recorded.endpoint: Tmax (min)
Please state the figure in min; there is no need to write the unit.

I'd like to know its Tmax. The compound in question is CNCc1ccc(-c2cc(-c3nc(-c4ccc(S(=O)(=O)C(C)C)cc4)cnc3N)on2)cc1
5

----------
# assay.summary: Dose linearity study: single IV dose PK, noncompartmental analysis
# Format: in vivo, female BALB/c mice
# condition.info: female, BALB/c, mouse, plasma, iv, 60 mg/kg
recorded.endpoint: half-life (h)
Please state the figure in h; there is no need to write the unit.

I'd like to know its half-life. The compound in question is CNCc1ccc(-c2cc(-c3nc(-c4ccc(S(=O)(=O)C(C)C)cc4)cnc3N)on2)cc1
10.5

meta.source: paper PMC11390321
